tested on: HeLa KRas G12C cells; test: Cellular growth inhibition assay (CTG), HeLa KRas G12C cells; type: cell-based; details: Homo sapiens, CellTiter-Glo 2.0, day-5
Reported GI50 values for a set of molecules
MEASURED METRIC: GI50

[[record]]
molecule = "C=C(F)C(=O)N1CCN(c2nc(OC[C@@H]3CCCN3CCOCCOCCOCCOCCOCCOCCOCCOCCOCCOCCOc3cc(Cl)cc(NC(=O)NCc4ccc5c(c4)CN(C4CCC(=O)NC4=O)C5=O)c3)nc3c2CCN(c2cccc4cccc(Cl)c24)C3)C[C@@H]1CC#N (stereo partly shown) [Compound I-10]"
recorded_measurement = "3 to 10 µM"

[[record]]
molecule = "C=C(F)C(=O)N1CCN(c2nc(OC[C@@H]3CCCN3CCOCCOCCOCCOCCOCCOCCOCCOCCCCCCCCCCCCCCc3cc(Cl)cc(NC(=O)NCc4ccc5c(c4)CN(C4CCC(=O)NC4=O)C5=O)c3)nc3c2CCN(c2cccc4cccc(Cl)c24)C3)C[C@@H]1CC#N (stereo partly shown) [Compound I-51]"
recorded_measurement = "< 1 µM"

[[record]]
molecule = "C=C(F)C(=O)N1CCN(c2nc(OC[C@@H]3CCCN3CCCOCCOCCOCCOCCOCCOCCOCCCCCc3ccc(Cl)cc3NC(=O)NCc3ccc4c(c3)CN(C3CCC(=O)NC3=O)C4=O)nc3c2CCN(c2cccc4cccc(Cl)c24)C3)C[C@@H]1CC#N (stereo partly shown) [Compound I-137]"
recorded_measurement = "3 to 10 µM"

[[record]]
molecule = "C=C(F)C(=O)N1CCN(c2nc(OC[C@@H]3CCCN3CCCOCCOCCOCCOCCOCCCCCc3cccc(NC(=O)NCc4ccc5c(c4)CN(C4CCC(=O)NC4=O)C5=O)n3)nc3c2CCN(c2cccc4cccc(Cl)c24)C3)C[C@@H]1CC#N (stereo partly shown) [Compound I-152]"
recorded_measurement = "3 to 10 µM"

[[record]]
molecule = "C=CC(=O)N1CCN(c2nc(NCCC(=O)N(C)CCOCCOCCOCCOCCOCCOCCOCCOCCc3cc(Cl)cc(NC(=O)NCc4ccc5c(c4)CN(C4CCC(=O)NC4=O)C5=O)c3)nc3c(F)c(-c4cc(O)cc5ccccc45)c(Cl)cc23)CC1 (stereo not shown) [Compound I-18]"
recorded_measurement = "> 10 µM"

[[record]]
molecule = "C=CC(=O)N1CCN(c2nc(NCCCCCCCCc3cccc4c3CN(C3CCC(=O)NC3=O)C4=O)nc3c(F)c(-c4cc(O)cc5ccccc45)c(Cl)cc23)CC1 (stereo not shown) [Compound I-8]"
recorded_measurement = "> 10 µM"

[[record]]
molecule = "C=C(F)C(=O)N1CCN(c2nc(OC[C@@H]3CCCN3CCOCCOCCOCCOCCOCCOCCOCCOCCc3cc(Cl)cc(NC(=O)NCc4ccc5c(c4)CN(C4CCC(=O)NC4=O)C5=O)c3)nc3c2CCN(c2cccc4cccc(Cl)c24)C3)C[C@@H]1CC#N (stereo partly shown) [Compound I-11]"
recorded_measurement = "> 10 µM"

[[record]]
molecule = "C=C(F)C(=O)N1CCN(c2nc(OC[C@@H]3CCCN3CCOCCOCCOCCOCCCCCCCCCCCCCCc3cc(Cl)cc(NC(=O)NCc4ccc5c(c4)CN(C4CCC(=O)NC4=O)C5=O)c3)nc3c2CCN(c2cccc4cccc(Cl)c24)C3)C[C@@H]1CC#N (stereo partly shown) [Compound I-49]"
recorded_measurement = "> 10 µM"

[[record]]
molecule = "C=C(F)C(=O)N1CCN(c2nc(OC[C@H]3CCCN3CCOCCOCCOCCOCCOCCOCCOCCOCCOCCOCCCCCCCCc3cc(Cl)cc(NC(=O)NCc4ccc5c(c4)CN(C4CCC(=O)NC4=O)C5=O)c3)nc3c2CCN(c2cccc4cccc(Cl)c24)C3)C[C@H]1CC#N (stereo partly shown) [Compound I-39]"
recorded_measurement = "< 1 µM"

[[record]]
molecule = "C=CC(=O)N1CCN(c2nc(NCCCCCCCCc3cc(Cl)cc(NC(=O)NCc4ccc5c(c4)CN(C4CCC(=O)NC4=O)C5=O)c3)nc3c(F)c(-c4cc(O)cc5ccccc45)c(Cl)cc23)CC1 (stereo not shown) [Compound I-5]"
recorded_measurement = "> 10 µM"

[[record]]
molecule = "C=C(F)C(=O)N1CCN(c2nc(OC[C@@H]3CCCN3CCOCCOCCOCCOCCOCCOCCOCCOCCOCCOCCCCCCCCCCCCCCc3cc(Cl)cc(NC(=O)NCc4ccc5c(c4)CN(C4CCC(=O)NC4=O)C5=O)c3)nc3c2CCN(c2cccc4cccc(Cl)c24)C3)C[C@@H]1CC#N (stereo partly shown) [Compound I-52]"
recorded_measurement = "< 1 µM"

[[record]]
molecule = "C=C(F)C(=O)N1CCN(c2nc(OC[C@@H]3CCCN3CCOCCOCCOCCOCCOCCOCCOCCOCCOCCOCCOCCOCCCCCCCCc3cc(Cl)cc(NC(=O)NCc4ccc5c(c4)CN(C4CCC(=O)NC4=O)C5=O)c3)nc3c2CCN(c2cccc4cccc(Cl)c24)C3)C[C@@H]1CC#N (stereo partly shown) [Compound I-46]"
recorded_measurement = "< 1 µM"

[[record]]
molecule = "C=C(F)C(=O)N1CCN(c2nc(OC[C@@H]3CCCN3CCCOCCOCCOCCOCCOCCOCCOCCOCCOCCOCCOCCCCCc3cccc(NC(=O)NCc4ccc5c(c4)CN(C4CCC(=O)NC4=O)C5=O)n3)nc3c2CCN(c2cccc4cccc(Cl)c24)C3)C[C@@H]1CC#N (stereo partly shown) [Compound I-148]"
recorded_measurement = "3 to 10 µM"

[[record]]
molecule = "C=CC(=O)N1CCN(c2nc(NCCOCCOCCOCCOCCOCCOCCOCCOCCOCCOCCc3cc(Cl)cc(NC(=O)NCc4ccc5c(c4)CN(C4CCC(=O)NC4=O)C5=O)c3)nc3c(F)c(-c4cc(O)cc5ccccc45)c(Cl)cc23)CC1 (stereo not shown) [Compound I-16]"
recorded_measurement = "> 10 µM"

[[record]]
molecule = "C=C(F)C(=O)N1CCN(c2nc(OC[C@@H]3CCCN3CCOCCOCCOCCOCCOCCOCCOCCOCCOCCOCCOCCOCCOc3cc(Cl)cc(NC(=O)NCc4ccc5c(c4)CN(C4CCC(=O)NC4=O)C5=O)c3)nc3c2CCN(c2cccc4cccc(Cl)c24)C3)C[C@@H]1CC#N (stereo partly shown) [Compound I-42]"
recorded_measurement = "> 10 µM"

[[record]]
molecule = "C=C(F)C(=O)N1CCN(c2nc(OC[C@@H]3CCCN3CCCCCCCCNc3cccc4c3CN(C3CCC(=O)NC3=O)C4=O)nc3c2CCN(c2cccc4cccc(Cl)c24)C3)C[C@@H]1CC#N (stereo partly shown) [Compound I-3]"
recorded_measurement = "3 to 10 µM"

